Provenance of the data: the supplement of paper PMC9233669

System: biotinyl-Ile-oxazolone
assay_method_text: self-aminoacylation, catalytic enhancement (BIO) (fold over background); higher = more active; k-Seq, kA / k0A0; sequences stand for … in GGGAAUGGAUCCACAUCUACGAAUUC…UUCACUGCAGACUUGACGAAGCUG
Variants at the floor of the assay were thinned out.
readout_type: self-aminoacylation

Worked set:
entry_sequence: AUUACCCUGGUGAUCGAAUGA [Fam2.1 aminoacylation ribozyme variant]
self-aminoacylation: 0.957
//
entry_sequence: AUACACCUCGGUCAUCGGGUG [Fam2.2 aminoacylation ribozyme variant]
self-aminoacylation: 2.82
//
entry_sequence: AGUACCCUGGUCAUAGAGUGA [Fam2.1 aminoacylation ribozyme variant]
self-aminoacylation: 2.33
//
entry_sequence: ACGGUUGCUAAUAGUCGCAAG [Fam3.1 aminoacylation ribozyme variant]
self-aminoacylation: 1.3
//
entry_sequence: AAGUCUGCUAAUAGUCGGAAG [Fam3.1 aminoacylation ribozyme variant]
self-aminoacylation: 1.25
//
entry_sequence: AUACGCCUAGGUCAUCGGGUG [Fam2.2 aminoacylation ribozyme variant]
self-aminoacylation: 4.85
//
entry_sequence: AUUACCCUGGUCAUCUGGUGA [Fam2.1 aminoacylation ribozyme variant]
self-aminoacylation: 3.08
//
entry_sequence: AAGUUUACUAGUAGUCGCAAG [Fam3.1 aminoacylation ribozyme variant]
self-aminoacylation: 1.44
//
entry_sequence: AUUACCAGGGUCAUCGAGUGA [Fam2.1 aminoacylation ribozyme variant]
self-aminoacylation: 3.1
//
entry_sequence: AUUCACCUAGGUCUGCGGGUG [Fam2.2 aminoacylation ribozyme variant]
self-aminoacylation: 3.08

Could you report self-aminoacylation for every entry in the following list?
1. AUUCCCCUAGGUCGUCGGGUG [Fam2.2 aminoacylation ribozyme variant]
2. AAGUUUGCUAAUUGUCGCUAG [Fam3.1 aminoacylation ribozyme variant]
3. CUUCUUCAAACAAUCGGUCGG [Fam1A.1 aminoacylation ribozyme variant]
4. AUUACAGUGGUCAUCGAGUGA [Fam2.1 aminoacylation ribozyme variant]
5. AAGUUUGCUAAUAGUCGUAAG [Fam3.1 aminoacylation ribozyme variant]
6. CCACACUUCAAGCCAUAGGUC [Fam1B.1 aminoacylation ribozyme variant]

(A)
5.97
0.95
0.873
1.75
1.19
0.812

----------
Test system: biotinyl-Ile-oxazolone
assay_method_text: self-aminoacylation, catalytic enhancement (BIO) (fold over background); higher = more active; k-Seq, kA / k0A0; sequences stand for … in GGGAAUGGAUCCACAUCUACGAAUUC…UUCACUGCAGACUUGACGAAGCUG
Variants at the floor of the assay were thinned out.
readout_type: self-aminoacylation
Numbers only.

entry_sequence: AUCACCCUGGUCAACGAGUGA [Fam2.1 aminoacylation ribozyme variant]
measured_target: biotinyl-Ile-oxazolone
readout_type: self-aminoacylation
value_observed: 4.43
//
entry_sequence: CCACACUUCCAGCAAUCGGGC [Fam1B.1 aminoacylation ribozyme variant]
measured_target: biotinyl-Ile-oxazolone
readout_type: self-aminoacylation
value_observed: 2
//
entry_sequence: CCACACGUCAAGCAAUCAGUC [Fam1B.1 aminoacylation ribozyme variant]
measured_target: biotinyl-Ile-oxazolone
readout_type: self-aminoacylation
value_observed: 0.647

Batch lookup, self-aminoacylation per entry.
1. CCACACAUCAAGCAACCGGUC [Fam1B.1 aminoacylation ribozyme variant]
2. AAGUUUGCUAAUAGUAGCAAC [Fam3.1 aminoacylation ribozyme variant]
3. CCACACUUCAAGCAACCCGUC [Fam1B.1 aminoacylation ribozyme variant]

(A)
1. 1.4
2. 1.09
3. 1.14

----------
Please provide measured self-aminoacylation for the entries that follow.
System: biotinyl-Phe-oxazolone
assay_method_text: self-aminoacylation, catalytic enhancement (BFO) (fold over background); higher = more active; k-Seq, kA / k0A0; sequences stand for … in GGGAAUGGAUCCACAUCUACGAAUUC…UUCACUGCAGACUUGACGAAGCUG
Fewer inactive variants are shown than the library holds.
One number for each entry.

Here is how some sequences turned out for self-aminoacylation.
entry_sequence: GUUCACCUUGGUCAUCGGGUG [Fam2.2 aminoacylation ribozyme variant]
measured_target: biotinyl-Phe-oxazolone
value_observed: 37.7
--
entry_sequence: AUUCACGGAGGUCAUCGGGUG [Fam2.2 aminoacylation ribozyme variant]
measured_target: biotinyl-Phe-oxazolone
value_observed: 65.1

Below are 4 sequences. Give each one its self-aminoacylation.
1. AUUACCCUGGUCAUCGAGUAA [Fam2.1 aminoacylation ribozyme variant]
2. AUUCAGCUAGAUCAUCGGGUG [Fam2.2 aminoacylation ribozyme variant]
3. CCAAAGUUCAAGCAAUCGGUC [Fam1B.1 aminoacylation ribozyme variant]
4. AAGUUUACUAAUAGGCGCAAG [Fam3.1 aminoacylation ribozyme variant]

(A)
[118, 26.3, 1.35, 2.02]

Quick request: self-aminoacylation for each listed item, please.
1. AUUCACCUAGGACAUCGGGUC [Fam2.2 aminoacylation ribozyme variant]
2. AUUAUCCUGGUGAUCGAGUGA [Fam2.1 aminoacylation ribozyme variant]
3. CUACUUCAAACACUCCGUCUG [Fam1A.1 aminoacylation ribozyme variant]
4. UCACACUUCAAGCAAUCGGCC [Fam1B.1 aminoacylation ribozyme variant]
5. CCACUUCGAACAAUCGGUCUG [Fam1A.1 aminoacylation ribozyme variant]
6. AUGACCCUGGUCAUCCAGUGA [Fam2.1 aminoacylation ribozyme variant]

(A)
1. 0.549
2. 45.5
3. 0.78
4. 4.64
5. 1.26
6. 38.6

I'm hoping you can list self-aminoacylation for every sequence here, please.
1. UUUCGCCUAGGUCAUCGGGUG [Fam2.2 aminoacylation ribozyme variant]
2. CCACACUUCGCGCAAUCGGUC [Fam1B.1 aminoacylation ribozyme variant]
3. AUUCACCCAGGUCAUCGGGUG [Fam2.2 aminoacylation ribozyme variant]
4. AUUGAUCUAGGUCAUCGGGUG [Fam2.2 aminoacylation ribozyme variant]
5. CCACACUCCAAGCAAUCGGUC [Fam1B.1 aminoacylation ribozyme variant]

(A)
[44.1, 10.5, 34.2, 35.2, 2.6]

Your task in this section: give self-aminoacylation for each listed record.
1. AGCACCCUGGUCAUCGAGUGA [Fam2.1 aminoacylation ribozyme variant]
2. CCACAUUUCAAGCACUCGGUC [Fam1B.1 aminoacylation ribozyme variant]
3. AUUACCCUAGUCAUCGAAUGA [Fam2.1 aminoacylation ribozyme variant]
4. CUACUUUAAACAAUCGGACUG [Fam1A.1 aminoacylation ribozyme variant]
5. CCAAACUUCAAGCAAUCGGUG [Fam1B.1 aminoacylation ribozyme variant]
6. AUUAACCUGGUCAUCGAGUGU [Fam2.1 aminoacylation ribozyme variant]
7. AUUACCCUGGUCAUCACGUGA [Fam2.1 aminoacylation ribozyme variant]

(A)
1: 6.9; 2: 0.933; 3: 0.87; 4: 0.698; 5: 32.4; 6: 5.48; 7: 52.4

Count: 8. Required value per item: self-aminoacylation.
1. CCACACAUCAAGCAAUCGGAC [Fam1B.1 aminoacylation ribozyme variant]
2. AAGUUGGCUAAUAGUCGCACG [Fam3.1 aminoacylation ribozyme variant]
3. AUUCAACUAGGUCAUCGGCUG [Fam2.2 aminoacylation ribozyme variant]
4. CUACUUCAAACAUUGGGUCUG [Fam1A.1 aminoacylation ribozyme variant]
5. CUACUUCAAACAAUUGGUGUG [Fam1A.1 aminoacylation ribozyme variant]
6. AACUUUACUAAUAGUCGCAAG [Fam3.1 aminoacylation ribozyme variant]
7. CCACACUUCAAGCAUACGGUC [Fam1B.1 aminoacylation ribozyme variant]
8. CCGCGCUUCAAGCAAUCGGUC [Fam1B.1 aminoacylation ribozyme variant]

(A)
1. 0.446
2. 2.62
3. 5.81
4. 0.555
5. 1.52
6. 6.76
7. 0.63
8. 158

----------
Test system: biotinyl-Leu-oxazolone
assay_method_text: self-aminoacylation, catalytic enhancement (BLO) (fold over background); higher = more active; k-Seq, kA / k0A0; sequences stand for … in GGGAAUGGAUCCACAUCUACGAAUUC…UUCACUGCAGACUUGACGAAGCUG
This sample holds only a part of the variants without activity.
Can you tell me self-aminoacylation for the items I'm about to list?
Give bare numbers.

entry_sequence: CCGCACUUCGAGCAAUCGGUC [Fam1B.1 aminoacylation ribozyme variant]
self-aminoacylation: 1.46

entry_sequence: AUGCACAUAGGUCAUCGGGUG [Fam2.2 aminoacylation ribozyme variant]
self-aminoacylation: 10.2

entry_sequence: AUUACGCUGGUCAUCGAGUGG [Fam2.1 aminoacylation ribozyme variant]
self-aminoacylation: 1.87

entry_sequence: CUACUUCAAACAACCGUUCUG [Fam1A.1 aminoacylation ribozyme variant]
self-aminoacylation: 0.625

Go through the list and state self-aminoacylation for each entry.
1. ACACACUUCAAUCAAUCGGUC [Fam1B.1 aminoacylation ribozyme variant]
2. AUUCACCUGGGUCAUCGGGGG [Fam2.2 aminoacylation ribozyme variant]
3. CCACUUCAAAGAAUCGGUCUG [Fam1A.1 aminoacylation ribozyme variant]
4. AGUACCCUGGGCAUCGAGUGA [Fam2.1 aminoacylation ribozyme variant]

(A)
1.74
5.65
1.32
6.54
